Value source: ChEMBL document CHEMBL4513216

# Protocol: Toxicity liver stage against HepG2, at 10uM
# Format: cell-based
# Design: test concentration 10 uM, cell line HepG2-A16-CD81EGFP
# Measurement parameters: human, HepG2-A16-CD81EGFP cells; read-out: INHIBITION
Property name: cytotoxicity at 10 µM (%)
Report as a plain number; the unit % is understood.

1. CC(C)c1cnc(CN(C)C2CCN(CCn3cc(C#N)cn3)C2)o1 (stereo unspecified): -4.98

The value of cytotoxicity at 10 µM measured for the compound Cc1csc([C@@H]2C[C@@H]3CCN(C(=O)c4cc(C)on4)C[C@H]3O2)n1 turned out to be 4.88

The value of cytotoxicity at 10 µM measured for the compound Cc1ccccc1C1(CNC(=O)N2CCC(CC(N)=O)CC2)CC1 turned out to be 4.48

The value of cytotoxicity at 10 µM measured for the compound O=C(c1cn2ccsc2n1)N1CCOCC(O)(CN2CCCC2)C1 (stereo unspecified) turned out to be 4.6

The value of cytotoxicity at 10 µM measured for the compound CCSc1ncc(CN2C[C@@H]3CC[C@H]2CN(C2CCOCC2)C3)cn1 turned out to be -6.38

The value of cytotoxicity at 10 µM measured for the compound COCCN(C)C[C@@H]1CN(C(=O)c2ccc(SC)cc2)C[C@@H]1CO turned out to be 4.44

The value of cytotoxicity at 10 µM measured for the compound CNc1cc(N2CCCC2CNCc2cscn2)ncn1 (stereo unspecified) turned out to be -0.426

----------
# Protocol: Toxicity liver stage against HepG2, at 10uM
# Assay type: cell-based
# Set-up: test concentration 10 uM, cell line HepG2-A16-CD81EGFP
# Measurement parameters: human, HepG2-A16-CD81EGFP cells; read-out: INHIBITION
Property name: cytotoxicity at 10 µM (%)
Report as a plain number; the unit % is understood.

A selection of reference data follows.
1. Cc1nn(C)cc1Cn1c(=O)cnc2ccccc21: 7.8
2. CCCNC(=O)CSc1nnc2[nH]c(=O)cc(CC)n12: -17.3
3. CCOC(C)c1nccn1CCC(=O)Nc1cc(C)on1 (stereo not drawn): 10.1
4. COc1cc(F)c(-n2cnc(CCNC(C)=O)c2)cc1F: -12.1

The value of cytotoxicity at 10 µM measured for the compound COc1ccc(C)cc1CN1CCCC1Cn1nc(C)nc1C (stereo not drawn) turned out to be 6.57

The value of cytotoxicity at 10 µM measured for the compound CN(Cc1ccccn1)CC1CCCN1c1cccnn1 (stereo not drawn) turned out to be 2.43

The value of cytotoxicity at 10 µM measured for the compound c1ccc(OCC2CC2)c(CNC2CCc3ncnn3C2)c1 (stereo not drawn) turned out to be -6.72

----------
# Protocol: Toxicity liver stage against HepG2, at 10uM
# Format: cell-based
# Parameters: test concentration 10 uM, cell line HepG2-A16-CD81EGFP
# Measurement parameters: human, HepG2-A16-CD81EGFP cells; read-out: INHIBITION
Property name: cytotoxicity at 10 µM (%)
Report as a plain number; the unit % is understood.

A selection of reference data follows.
1. CCc1noc(CN(C)CCC(=O)Nc2ccc(Cl)cc2)n1: 2.78
2. COc1cc(CN2CCN(c3cccc(OC)c3)C(=O)C2)cc(OC)c1: -11.7
3. Cc1nc(N2CCN(C(=O)c3ccc(O)cc3)CC2)c2cnn(C)c2n1: -4.91
4. COCc1cc(CN(C)C(=O)CCC(=O)Nc2cc(C)ccc2F)n[nH]1: -14.5
5. CCc1cc(N(C)Cc2ccnc(C)c2)n2nc(C)c(C)c2n1: 61.6
6. Cc1nccc(CNC(=O)NCCOc2ccc(F)c(F)c2)n1: -17

The value of cytotoxicity at 10 µM measured for the compound Cc1nc(CN2CCCc3cc(OC(F)(F)F)ccc32)oc1C turned out to be 0.889

The value of cytotoxicity at 10 µM measured for the compound CCC[C@@H]1CN(Cc2ccccc2-c2ccco2)C[C@H]1NC(C)=O turned out to be 20.9

The value of cytotoxicity at 10 µM measured for the compound Cc1ccc(C(CCNCCN(C)C)C2CCOC(C)(C)C2)cc1 (configuration not stated) turned out to be 3.46

The value of cytotoxicity at 10 µM measured for the compound CS(=O)(=O)NC1CCN(C(=O)NCCc2ccccc2F)CC1 turned out to be -3.83

The value of cytotoxicity at 10 µM measured for the compound c1cnc2nc(N3CCCC3c3nnc4n3CCCCC4)ccc2n1 (configuration not stated) turned out to be 4.21

The value of cytotoxicity at 10 µM measured for the compound Cc1ccc(CNCc2c[nH]nc2C(C)(C)C)c(OC2CCOC2)c1 (configuration not stated) turned out to be 13.8

The value of cytotoxicity at 10 µM measured for the compound CCN(CCO)C(=O)Nc1ccc(OCCOC)nc1 turned out to be -5.71

The value of cytotoxicity at 10 µM measured for the compound Cc1cc2c(cc1C)OC1(C=C2)CCN(CC(=O)N2CCOCC2)CC1 turned out to be -10.4

The value of cytotoxicity at 10 µM measured for the compound Cc1noc(C)c1-c1cncc(C2CCCN2Cc2ccncc2)n1 (configuration not stated) turned out to be -7.98

----------
# Protocol: Toxicity liver stage against HepG2, at 10uM
# Assay type: cell-based
# Design: test concentration 10 uM, cell line HepG2-A16-CD81EGFP
# Measurement parameters: human, HepG2-A16-CD81EGFP cells; read-out: INHIBITION
Catalogue of molecules with associated cytotoxicity at 10 µM
Report as a plain number; the unit % is understood.

A selection of reference data follows.
1) Cc1ccc(O)c(C(=O)NCCCS(=O)(=O)Cc2ccccc2)c1: 33.6
2) CN(C)c1ccc(NC(=O)NCc2ccccn2)cn1: -3.34
3) c1cnc(N2CCN(CCn3ccnc3-c3c[nH]cn3)CC2)nc1: 2.14
4) Cc1cc2n(n1)CC(CNCCNC(=O)c1ccc(F)cc1)CN2 (stereo not given): 6.15
5) CC(C)Oc1cc(N2CCCC(O)C2)nc(N)n1 (stereo not given): -0.796
6) Cc1ncsc1CCC(=O)N1CCCC1c1cccnc1 (stereo not given): 13.4
7) CN(C)c1ccc(CN2C[C@@H]3CC[C@H]2CN(C2CCOCC2)C3)cn1: -3.62
8) COc1cc(F)cc(CNC(=O)Nc2ccn(CC(F)F)n2)c1: -2.21

The value of cytotoxicity at 10 µM measured for the molecule COC(=O)N1CCc2ccccc2C1C(=O)NCc1ccco1 (stereo not given) turned out to be -1.94

The value of cytotoxicity at 10 µM measured for the molecule CC(=O)NCCc1ccc(C(=O)N2CCCC2c2cnn(C)c2)cc1 (stereo not given) turned out to be -4.74

The value of cytotoxicity at 10 µM measured for the molecule CO[C@H]1CN(C(C)C)C[C@@H]1NC(=O)c1cc(-c2ccccc2F)n[nH]1 turned out to be -6.01

----------
# Protocol: Toxicity liver stage against HepG2, at 10uM
# Type: cell-based
# Parameters: test concentration 10 uM, cell line HepG2-A16-CD81EGFP
# Measurement parameters: human, HepG2-A16-CD81EGFP cells; read-out: INHIBITION
Property name: cytotoxicity at 10 µM (%)
Report as a plain number; the unit % is understood.

A selection of reference data follows.
1) CC(=O)N1CCC(n2nccc2-c2cnc(N3CCCC3)nc2)CC1: -0.00173
2) Cc1ccc(C(=O)N2C[C@@H]3CN(S(C)(=O)=O)CCO[C@@H]3C2)o1: -2.42
3) N#Cc1nccnc1N1CCC(C(O)c2cccs2)CC1 (centres undefined): -38
4) CN1CCN(c2ccccc2CNC(=O)CSC(F)(F)F)CC1: 8.27

The value of cytotoxicity at 10 µM measured for the compound Cc1nc(CN2CCO[C@@H]3CN(Cc4ccsc4)C[C@@H]3C2)cs1 turned out to be 2.99

The value of cytotoxicity at 10 µM measured for the compound CCS(=O)(=O)CC(=O)N1CCCC(c2noc(C(C)C)n2)C1 (centres undefined) turned out to be -4.78

The value of cytotoxicity at 10 µM measured for the compound COCCn1cnc2c(F)cc(Br)cc2c1=O turned out to be -0.62

----------
# Protocol: Toxicity liver stage against HepG2, at 10uM
# Assay type: cell-based
# Design: test concentration 10 uM, cell line HepG2-A16-CD81EGFP
# Measurement parameters: human, HepG2-A16-CD81EGFP cells; read-out: INHIBITION
Property name: cytotoxicity at 10 µM (%)
Report as a plain number; the unit % is understood.

A selection of reference data follows.
1. Cc1nc(NC(=O)c2c3c(nn2C2CCS(=O)(=O)C2)CCC3)sc1C (stereo unspecified): -4.57
2. CCc1nn2c(=N)c(C#N)n[nH]c2c1-c1ccc(OC)cc1: -3.73
3. Cc1nc2ccc(S(=O)(=O)Nc3c(C)nn(CC(=O)O)c3C)cc2s1: -2.83
4. CC(C)c1ncc2c(n1)CN(CCCc1nc3ccccc3o1)CC2: -13.2
5. Cn1cc(Cl)c(CN2CCn3nc(C(=O)Nc4ccccc4)cc3C2)n1: -2.8
6. CC(C)COC(=O)N1CCCN(C(C)c2nc(C(C)C)no2)CC1 (stereo unspecified): 6.85
7. COc1cccc(S(=O)(=O)NC2CNC(=O)C2)c1 (stereo unspecified): -21.7
8. CN1CCN(c2cc(CNC(=O)Cn3cccn3)ccn2)CC1: -11.6
9. CCN(Cc1ccncc1)C1CCN(c2ccccc2)C1=O (stereo unspecified): -1.83
10. Cn1cc(CN2CC(C(=O)Nc3ccccc3)C3(CCOCC3)C2)cn1 (stereo unspecified): -1.96

// next item, cytotoxicity at 10 µM requested
The value of cytotoxicity at 10 µM measured for the molecule CCN(CC)S(=O)(=O)CC(=O)N1CCc2ccc(C)cc21 turned out to be -5.77
